Biological target: Human SARS-CoV-2_Wuhan S (SmT1) (SARS-CoV-2 (Wuhan), UniProt P0DTC2 14-1208)
Test: SPR, VHH over immobilised S
Each record is given condition met if its reported Kd is strictly below 3 nM. Records at or above 3 nM are given condition not met.

Example cases with answers are listed next.
NRCoV2-MRed20 VHH (VHH) VHH: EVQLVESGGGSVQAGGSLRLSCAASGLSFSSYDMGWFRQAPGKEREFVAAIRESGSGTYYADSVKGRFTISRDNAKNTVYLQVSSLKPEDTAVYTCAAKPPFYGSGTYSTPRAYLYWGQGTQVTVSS	condition met
NRCoV2-SR03 VHH (VHH) VHH: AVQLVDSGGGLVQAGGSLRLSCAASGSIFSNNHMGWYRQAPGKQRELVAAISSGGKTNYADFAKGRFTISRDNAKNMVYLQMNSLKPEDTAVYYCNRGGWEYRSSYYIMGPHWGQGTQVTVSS	condition met
NRCoV2-1d VHH (VHH) VHH: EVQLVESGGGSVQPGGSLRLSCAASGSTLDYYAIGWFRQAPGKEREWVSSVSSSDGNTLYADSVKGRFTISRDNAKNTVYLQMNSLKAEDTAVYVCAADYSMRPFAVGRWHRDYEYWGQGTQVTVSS	condition met
NRCoV2-S2G3 VHH (VHH) VHH: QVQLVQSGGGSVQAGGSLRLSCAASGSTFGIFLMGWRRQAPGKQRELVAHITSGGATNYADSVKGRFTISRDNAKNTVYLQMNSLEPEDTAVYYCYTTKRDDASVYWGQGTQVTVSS	condition met
NRCoV2-18 VHH (VHH) VHH: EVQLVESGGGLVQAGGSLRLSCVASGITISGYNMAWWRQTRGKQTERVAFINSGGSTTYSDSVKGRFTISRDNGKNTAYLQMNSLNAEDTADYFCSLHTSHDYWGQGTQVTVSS	condition met
NRCoV2-14 VHH (VHH) VHH: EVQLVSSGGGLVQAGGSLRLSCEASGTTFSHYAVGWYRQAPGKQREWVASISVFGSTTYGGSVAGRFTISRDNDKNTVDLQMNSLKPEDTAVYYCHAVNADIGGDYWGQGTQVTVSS	condition met

Q. API: query returns whether the binder falls strictly under 3 nM in Kd. Query: NRCoV2-04 VHH (VHH) VHH: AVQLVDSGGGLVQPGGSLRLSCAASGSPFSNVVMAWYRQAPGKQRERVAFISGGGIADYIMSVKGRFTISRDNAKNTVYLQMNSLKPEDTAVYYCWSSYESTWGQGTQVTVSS
A. condition not met

Q. API: query returns whether the binder falls strictly under 3 nM in Kd. Query: NRCoV2-MRed19 VHH (VHH) VHH: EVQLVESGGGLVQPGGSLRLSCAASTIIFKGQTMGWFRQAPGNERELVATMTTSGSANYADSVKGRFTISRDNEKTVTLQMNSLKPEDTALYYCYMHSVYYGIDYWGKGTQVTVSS
A. condition not met
